Taken from patent US20060063759A1.

Quick list: Ki per entry.
TARGET OF ASSAY: human MR (Homo sapiens)
Construct: The full length human MR gene is cloned from a human kidney or human brain cDNA library; His tag from the pAcHLT vector (own knowledge); made in house; host or cells: Sf9 insect cells (baculovirus, pAcHLT transfer vector)
PROTOCOL DETAILS: Mineralocorticoid Receptor Binding Assay ([3H]-aldosterone)

human MR (Homo sapiens) / Ki / "COc1ccc2c(c1)COc1cc(F)ccc1/C2=C(\C)c1cccc(NS(C)(=O)=O)c1" : value?
< 500 nM

What value of Ki on human MR (Homo sapiens) does "COc1ccc2c(c1)COc1cc(F)ccc1/C2=C(/C)c1cccc(NS(C)(=O)=O)c1" have?
< 500 nM

I'm curious: which Ki was measured for COc1ccc2c(c1)CCc1ccccc1C2=Cc1ccc(O)cc1 (mixture of isomers) tested on human MR (Homo sapiens)?
< 500 nM

* * *

TARGET OF ASSAY: human MR (Homo sapiens)
Construct: The full length human MR gene is cloned from a human kidney or human brain cDNA library; His tag from the pAcHLT vector (own knowledge); made in house; host or cells: Sf9 insect cells (baculovirus, pAcHLT transfer vector)
PROTOCOL DETAILS: Mineralocorticoid Receptor Binding Assay ([3H]-aldosterone)
PROTOCOL CONDITIONS: [3H]-aldosterone binding, human MR expressed in Sf9 cells; read-out: MR Ki
pKi: −log10 of the molar value.
Quick reference for pKi among some molecules

# annotated cases, reported pKi shown
{"columns": ["MOLECULE", "TARGET OF ASSAY", "RESULT"],
 "data": [
  ["CS(=O)(=O)Nc1cccc(C=C2c3ccccc3CCc3ccccc32)n1", "human MR (Homo sapiens)", "> 6.30"],
  ["CS(=O)(=O)Nc1cccc(C=C2c3ccccc3C3C(c4ccccc42)C3(F)F)c1 (stereo not shown)", "human MR (Homo sapiens)", "> 6.30"]
]}

Could you share which pKi value was measured for "O=c1[nH]c2cc(/C=C3\c4ccc(F)cc4CCc4ncccc43)ccc2s1" ?
> 6.30

Look up pKi: "Cc1ccc2c(c1)SCc1ccccc1/C2=C\c1cccc(NS(C)(=O)=O)c1"
> 6.30

* * *

Each entry below carries its recorded melting point.
Answer in °C, number only, no unit symbol.

# melting point lookup, item CNS(=O)(=O)c1ccccc1C=C1c2ccccc2CCc2ccccc21 [Example 4]
149

* * *

// pKi lookup, one value per entry
TARGET OF ASSAY: human MR (Homo sapiens, UniProt P08235)
Construct: The full length human MR gene is cloned from a human kidney or human brain cDNA library; His tag from the pAcHLT vector (own knowledge); made in house; host or cells: Sf9 insect cells (baculovirus, pAcHLT transfer vector)
Sequence (P08235 1-984): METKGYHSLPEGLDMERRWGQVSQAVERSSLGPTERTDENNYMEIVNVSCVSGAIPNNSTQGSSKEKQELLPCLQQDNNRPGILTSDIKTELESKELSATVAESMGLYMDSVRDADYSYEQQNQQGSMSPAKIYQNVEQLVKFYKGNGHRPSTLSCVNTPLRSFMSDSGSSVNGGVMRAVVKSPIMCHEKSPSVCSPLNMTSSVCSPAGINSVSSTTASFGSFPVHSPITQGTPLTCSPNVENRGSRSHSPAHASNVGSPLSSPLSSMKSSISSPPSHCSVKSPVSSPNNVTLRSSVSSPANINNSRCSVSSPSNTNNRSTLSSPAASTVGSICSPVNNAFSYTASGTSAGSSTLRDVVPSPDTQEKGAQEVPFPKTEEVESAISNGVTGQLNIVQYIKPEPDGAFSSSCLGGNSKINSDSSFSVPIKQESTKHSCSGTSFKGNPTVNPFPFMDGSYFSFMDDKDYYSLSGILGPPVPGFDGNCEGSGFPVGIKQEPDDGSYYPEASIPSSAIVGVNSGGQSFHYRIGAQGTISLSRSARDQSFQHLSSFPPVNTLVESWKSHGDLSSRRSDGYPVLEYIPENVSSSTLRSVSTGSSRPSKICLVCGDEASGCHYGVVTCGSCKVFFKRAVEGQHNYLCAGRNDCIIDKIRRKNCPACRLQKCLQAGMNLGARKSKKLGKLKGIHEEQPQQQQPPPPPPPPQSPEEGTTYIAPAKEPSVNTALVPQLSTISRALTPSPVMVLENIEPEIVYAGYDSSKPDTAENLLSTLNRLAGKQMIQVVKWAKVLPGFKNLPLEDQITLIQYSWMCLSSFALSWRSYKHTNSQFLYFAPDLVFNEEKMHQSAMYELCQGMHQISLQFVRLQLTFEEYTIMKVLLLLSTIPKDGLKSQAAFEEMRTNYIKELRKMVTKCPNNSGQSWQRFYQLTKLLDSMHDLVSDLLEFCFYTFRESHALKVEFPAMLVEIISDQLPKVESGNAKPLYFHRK
PROTOCOL DETAILS: Mineralocorticoid Receptor Binding Assay ([3H]-aldosterone)
PROTOCOL CONDITIONS: [3H]-aldosterone binding, human MR expressed in Sf9 cells; read-out: MR Ki
pKi: −log10 of the molar value.

Some compounds with recorded pKi:
{"columns": ["SMILES STRING", "pKi"],
 "data": [
  ["Cc1cccc2c1/C(=C/c1cccc(NS(C)(=O)=O)c1)c1ccccc1CC2", "> 6.30"],
  ["Cc1ccc2c(c1)CSc1ccccc1/C2=C\\c1cccc(NS(C)(=O)=O)c1", "> 6.30"]
]}

Requested read-out: pKi. Entry: "O=c1[nH]c2ccc(C=C3c4ccc(F)cc4COc4cc(F)ccc43)cc2[nH]1"
> 6.30

// returns reported pKi for input "Cc1cccc(C=C2c3ccccc3CCc3cc(Cl)ccc32)c1"
> 6.30

Report pKi for "O=Cc1ccccc1C=C1c2ccccc2CCc2ccccc21" please.
> 6.30

* * *

TARGET OF ASSAY: human MR (Homo sapiens, UniProt P08235)
Construct: The full length human MR gene is cloned from a human kidney or human brain cDNA library; His tag from the pAcHLT vector (own knowledge); made in house; host or cells: Sf9 insect cells (baculovirus, pAcHLT transfer vector)
Sequence (P08235 1-984): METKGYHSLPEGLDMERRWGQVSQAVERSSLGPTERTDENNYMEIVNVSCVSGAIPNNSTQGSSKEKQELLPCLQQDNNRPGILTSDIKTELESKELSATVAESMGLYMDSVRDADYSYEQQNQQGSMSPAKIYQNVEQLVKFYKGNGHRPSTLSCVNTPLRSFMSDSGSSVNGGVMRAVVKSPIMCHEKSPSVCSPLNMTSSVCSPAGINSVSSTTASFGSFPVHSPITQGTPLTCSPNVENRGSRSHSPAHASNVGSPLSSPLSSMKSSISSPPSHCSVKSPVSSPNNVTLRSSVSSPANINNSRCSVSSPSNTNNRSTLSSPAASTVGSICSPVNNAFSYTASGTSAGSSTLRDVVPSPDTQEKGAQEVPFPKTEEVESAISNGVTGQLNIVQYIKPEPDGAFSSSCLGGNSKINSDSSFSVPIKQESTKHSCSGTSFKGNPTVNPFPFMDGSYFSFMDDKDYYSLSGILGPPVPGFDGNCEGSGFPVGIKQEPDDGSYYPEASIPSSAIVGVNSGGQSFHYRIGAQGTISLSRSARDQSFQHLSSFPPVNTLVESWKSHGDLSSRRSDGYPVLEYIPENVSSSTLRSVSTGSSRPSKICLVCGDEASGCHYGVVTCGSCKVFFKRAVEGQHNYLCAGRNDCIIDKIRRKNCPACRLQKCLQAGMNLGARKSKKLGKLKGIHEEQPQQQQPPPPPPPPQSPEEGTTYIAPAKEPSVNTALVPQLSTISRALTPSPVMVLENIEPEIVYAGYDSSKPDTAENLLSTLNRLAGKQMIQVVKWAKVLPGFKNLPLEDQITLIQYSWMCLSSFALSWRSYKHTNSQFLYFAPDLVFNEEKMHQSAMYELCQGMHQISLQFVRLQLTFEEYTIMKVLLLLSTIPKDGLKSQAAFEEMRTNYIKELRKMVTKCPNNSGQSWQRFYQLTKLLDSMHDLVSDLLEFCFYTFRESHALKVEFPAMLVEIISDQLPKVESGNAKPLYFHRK
PROTOCOL DETAILS: Mineralocorticoid Receptor Binding Assay ([3H]-aldosterone)
PROTOCOL CONDITIONS: [3H]-aldosterone binding, human MR expressed in Sf9 cells; read-out: MR Ki
PARAMETER MEASURED: Ki

Example entries and their recorded answers appear below.
{"columns": ["MOLECULE", "Ki"],
 "data": [
  ["CS(=O)(=O)Nc1cccc(/C=C2\\c3ccccc3CS(=O)(=O)c3ccccc32)c1 [Example 264]", "< 1000 nM"],
  ["CS(=O)(=O)Nc1cccc(CC2c3ccccc3CCc3ccc(Cl)cc32)c1 (centres unmarked) [Example 189]", "< 500 nM"],
  ["CC/C(=C1\\c2ccccc2COc2ccccc21)c1cccc(NS(C)(=O)=O)c1 [Example 799]", "< 500 nM"]
]}

Item under review: COc1ccc2c(c1)/C(=C\c1cccc(NS(C)(=O)=O)c1)c1ccccc1CC2 [Example 348] . Reported Ki?
< 500 nM

Can you share its Ki? I mean this molecule: CC(C)n1c(=O)[nH]c2cc(/C=C3\c4ccc(F)cc4CCc4ncccc43)ccc21 [Example 592]
< 500 nM

Look at this molecule and give its reported Ki. O=C(Nc1cccc(/C=C2\c3ccccc3CCc3cc(Cl)ccc32)c1)C(F)(F)F [Example 413]
< 500 nM

Which Ki is reported for this molecule? C/C(=C1/c2ccccc2CCc2cc(OCC3CC3)ccc21)c1cccc(NS(C)(=O)=O)c1 [Example 826]
< 500 nM

Please look up its Ki: CC/C(=C1/c2ccc(OC)cc2COc2ccccc21)c1cccc(NS(C)(=O)=O)c1 [Example 821]
< 500 nM
